test system: Trypanosoma cruzi; assay: Trypanosoma cruzi phosphomannomutase and mannose-1-phosphate guanylyltransferase assay; type: functional; set-up: scale not given: direction of the effect not stated beside the values; conditions: 10 µM
endpoint: Percent Effect

Exam item: Reported Percent Effect for Trypanosoma cruzi, given Cc1noc(C)c1CNC(=O)N1CCC(C(O)c2ccccc2)CC1 (centres undefined) ?
Marked response: 7.54%

----------
target: Ubiquitin-activating enzyme e1, putative (Leishmania donovani (strain BPK282A1)); test: Leishmania donovani Ubiquitin Activating Enzyme (LdE1); format: functional; set-up: scale not given: direction of the effect not stated beside the values; settings: 30 µM
Potency and affinity values are given separately.
endpoint: Percent Effect (%)
Dear colleague, please return just the value in %, with no unit written.

CCCc1nc(C)cc(N2CCC3(CCC(=O)N(CCOC)C3)CC2)n1 = 10.8
Cc1cnc(N2C[C@H]3C[C@H](C(=O)N(C)C)[C@@H](C2)O3)nc1 = -5.33
CC(NC(=O)NCC1(N2CCCCC2)CCCCC1)c1nncn1C (configuration not stated) = 18.4
O=C(Nc1ccc(F)c(Br)c1)N1CCCC1 = -2.7
COc1ccccc1Oc1ncccc1CNC(=O)[C@@H](C)NC(C)=O = -4.17

Exam item: Report Percent Effect for O=C(NCCCn1cccn1)N1CCCC1c1ccncc1 (configuration not stated) please.
Marked response: 2.67

Exam item: Here is the next molecule: Cc1cc(C)n(CC2CCCCN2CC(=O)Nc2nncs2)n1 (configuration not stated)
Marked response: 8

Exam item: Here is the next molecule: OC(COCc1cccs1)CN1CCC(c2ccn[nH]2)CC1 (configuration not stated)
Marked response: 15.2

Exam item: Here is the next molecule: CCn1cc(NC(=O)NCC(C)O)cn1 (configuration not stated)
Marked response: 17.7

Exam item: Here is the next molecule: Cc1ccc(CNC2CCCc3c2cnn3C)s1 (configuration not stated)
Marked response: 13

Exam item: Here is the next molecule: CC(C)N1Cc2c(C(=O)N3CCOCC3)nn(C)c2C1
Marked response: -2.7

Exam item: Here is the next molecule: CN1CCCCC1c1ncc2c(n1)CCN(Cc1ccccc1Cl)C2 (configuration not stated)
Marked response: -13.3

----------
target: Ubiquitin-activating enzyme e1, putative (Leishmania donovani (strain BPK282A1)) (UniProt E9BSI1); test: Leishmania donovani Ubiquitin Activating Enzyme (LdE1); assay type: functional; design: scale not given: direction of the effect not stated beside the values; settings: 30 µM
Sequence (E9BSI1 as listed by the source): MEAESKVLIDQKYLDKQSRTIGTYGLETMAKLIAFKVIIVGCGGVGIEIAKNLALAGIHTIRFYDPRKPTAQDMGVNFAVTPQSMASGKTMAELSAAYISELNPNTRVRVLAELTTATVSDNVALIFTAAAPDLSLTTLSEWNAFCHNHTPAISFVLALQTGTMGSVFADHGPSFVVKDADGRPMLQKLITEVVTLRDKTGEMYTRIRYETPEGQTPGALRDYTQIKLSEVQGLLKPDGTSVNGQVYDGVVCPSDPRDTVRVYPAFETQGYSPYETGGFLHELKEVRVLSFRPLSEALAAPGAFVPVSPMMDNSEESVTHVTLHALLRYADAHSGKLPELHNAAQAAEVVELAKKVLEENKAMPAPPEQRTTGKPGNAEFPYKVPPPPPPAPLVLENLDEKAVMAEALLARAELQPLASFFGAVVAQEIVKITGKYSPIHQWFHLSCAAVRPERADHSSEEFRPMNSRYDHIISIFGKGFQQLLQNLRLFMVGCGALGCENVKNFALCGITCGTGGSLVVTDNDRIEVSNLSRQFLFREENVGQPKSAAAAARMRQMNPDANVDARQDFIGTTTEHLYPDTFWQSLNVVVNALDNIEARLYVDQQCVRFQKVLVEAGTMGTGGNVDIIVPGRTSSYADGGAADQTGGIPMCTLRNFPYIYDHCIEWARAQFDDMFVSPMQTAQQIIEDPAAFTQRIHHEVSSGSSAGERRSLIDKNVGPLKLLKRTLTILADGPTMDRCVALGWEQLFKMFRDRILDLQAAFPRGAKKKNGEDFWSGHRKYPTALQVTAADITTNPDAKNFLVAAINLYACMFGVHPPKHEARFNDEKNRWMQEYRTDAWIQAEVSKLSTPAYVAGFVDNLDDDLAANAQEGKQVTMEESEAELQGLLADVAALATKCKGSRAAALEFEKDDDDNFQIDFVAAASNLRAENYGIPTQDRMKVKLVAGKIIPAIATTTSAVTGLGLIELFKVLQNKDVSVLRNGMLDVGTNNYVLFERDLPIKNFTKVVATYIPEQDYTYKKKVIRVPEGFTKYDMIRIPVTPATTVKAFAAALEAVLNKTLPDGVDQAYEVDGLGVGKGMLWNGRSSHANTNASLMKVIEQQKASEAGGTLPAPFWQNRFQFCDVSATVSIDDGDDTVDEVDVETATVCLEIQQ
Results with a measured potency or affinity are listed apart.
endpoint: Percent Effect (%)
Dear colleague, please return just the value in %, with no unit written.

O=C(Cc1cccc(F)c1)NCCNCc1cccc(O)c1 = -5.2
CN(Cc1ccc(OC(F)F)cc1)C(=O)CS(=O)(=O)c1ccc(Cl)cc1 = -2.7
CN(CCc1ccccc1)Cc1cc(C(=O)N2CCCC2(C)C)no1 = 13.7
COc1ccccc1CN(C)c1nccc(-c2cn(C)nc2C)n1 = 5.33
Cc1nccc(CN2CCC(c3nnsc3S(C)(=O)=O)CC2)n1 = 6.76
Cc1nc(C)n(CC2CN(c3ncnc4[nH]ccc34)CCO2)n1 (stereo unspecified) = 11.4

Exam item: Report Percent Effect for Cc1ccc(N2CCC3(CC2)CC(OCC(=O)N(C)C)CO3)nn1 (stereo unspecified) please.
Marked response: 5.41

Exam item: Here is the next compound: Cc1cc(C[S+]([O-])CC(=O)NCC(C)C)no1 (stereo unspecified)
Marked response: 18.2

Exam item: Here is the next compound: Cc1cncc(C(=O)N2CCC(Cn3cc(-c4ccsc4)nn3)CC2)c1
Marked response: 2.7

Exam item: Here is the next compound: O=C(COc1ccc2c(c1)CCC2)N1CCOCC1c1ncon1 (stereo unspecified)
Marked response: 2.7

Exam item: Here is the next compound: CN(C)C(=O)CNC(=O)Nc1cccc(Cl)c1SC(F)F
Marked response: 1.39

----------
molecular target: Tyrosyl-tRNA synthetase, putative (Trypanosoma cruzi (strain CL Brener)) (UniProt Q4DSP6); experiment: Trypanosoma cruzi tyrosyl tRNA synthetase (TcYRS) _High Tyrosine SOP; type: functional; parameters: scale not given: in the data most compounds retested in dose-response had high values; conditions: 30 µM
Sequence (Q4DSP6 as listed by the source): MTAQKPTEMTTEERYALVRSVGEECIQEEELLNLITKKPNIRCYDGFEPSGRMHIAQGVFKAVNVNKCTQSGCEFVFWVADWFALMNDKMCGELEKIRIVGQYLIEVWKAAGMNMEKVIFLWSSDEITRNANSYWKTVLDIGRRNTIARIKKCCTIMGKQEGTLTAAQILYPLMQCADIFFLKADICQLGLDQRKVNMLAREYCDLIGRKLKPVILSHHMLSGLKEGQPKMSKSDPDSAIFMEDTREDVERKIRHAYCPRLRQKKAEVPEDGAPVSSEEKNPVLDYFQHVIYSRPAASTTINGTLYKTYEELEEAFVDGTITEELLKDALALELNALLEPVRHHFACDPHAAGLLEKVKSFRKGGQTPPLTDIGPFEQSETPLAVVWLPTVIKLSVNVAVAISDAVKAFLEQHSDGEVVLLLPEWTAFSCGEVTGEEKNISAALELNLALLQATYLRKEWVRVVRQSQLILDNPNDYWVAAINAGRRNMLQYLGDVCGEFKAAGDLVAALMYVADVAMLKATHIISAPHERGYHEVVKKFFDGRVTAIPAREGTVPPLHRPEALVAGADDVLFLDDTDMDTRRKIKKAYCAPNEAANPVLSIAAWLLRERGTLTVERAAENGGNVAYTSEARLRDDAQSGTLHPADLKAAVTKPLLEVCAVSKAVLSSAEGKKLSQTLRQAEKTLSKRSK
endpoint: Percent Effect (%)
Dear colleague, please return just the value in %, with no unit written.

Example entries begin here.
CCc1noc(C(C)N2CCC(C(=O)Nc3cnn(CC)c3)CC2)n1 (centres undefined) = -4.17
Cc1c[nH]cc1C(=O)N1CCN(Cc2nc(C(C)C)no2)CC1 = 2.97
Cc1cc(C)c(CNC(=O)NCCOc2ccc3c(c2)CCC3)c(=O)[nH]1 = 1.47
COCCC(=O)N1CCC2(COCc3cnc(N4CCOCC4)nc32)C1 (centres undefined) = 0
Cc1nc(C2CCCN(C(=O)c3cccc(S(C)(=O)=O)c3)C2)no1 (centres undefined) = 0
COc1cccc(OCC2CCCN(C(=O)c3cnc(C)nc3O)C2)c1 (centres undefined) = 7.94

Exam item: Report Percent Effect for COCCO[C@@H]1C[C@H]2CN(C(=O)c3cnccn3)CCN2C1 please.
Marked response: 0

Exam item: Here is the next molecule: C[C@@H]1C[C@@H]2CCN(C(=O)c3cnccn3)C[C@H]2O1
Marked response: 1.98

Exam item: Here is the next molecule: CN(C)c1ncc(CN2CCC(c3nnsc3S(C)(=O)=O)CC2)cn1
Marked response: 3.23

----------
Recorded Percent Effect, one value per entry.
target: Arginase-2, mitochondrial (Homo sapiens) (UniProt P78540); assay: in vitro enzyme assay to detect the production of urea directly proportional to the activity of Arginase II; type: functional; design: scale not given: in the data most compounds retested in dose-response had high values; conditions: 33.3 µM
Sequence (P78540 whole entry): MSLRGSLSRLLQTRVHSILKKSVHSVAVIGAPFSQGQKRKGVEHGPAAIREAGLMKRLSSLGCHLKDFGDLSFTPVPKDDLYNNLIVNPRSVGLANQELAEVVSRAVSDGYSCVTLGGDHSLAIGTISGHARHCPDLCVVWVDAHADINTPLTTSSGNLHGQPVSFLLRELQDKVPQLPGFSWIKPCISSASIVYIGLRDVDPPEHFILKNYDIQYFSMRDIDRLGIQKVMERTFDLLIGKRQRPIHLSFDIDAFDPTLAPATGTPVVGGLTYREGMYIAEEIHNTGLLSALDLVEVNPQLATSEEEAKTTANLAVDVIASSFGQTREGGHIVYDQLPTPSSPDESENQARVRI
Dear colleague, please return just the value in %, with no unit written.

Example entries begin here.
CC(C)(C)c1ccn(C2(C(=O)O)CCN(c3nccc(N)n3)CC2)n1 = -0.442
COCCN1C[C@@H]2CN(Cc3ccsc3)CCC[C@]2(C(=O)O)C1 = 11
O=C(O)C1(Cc2cc(-c3cccc(F)c3)no2)CCOCC1 = -3.02
Cc1nn(C)c(C)c1C1COCCN1C(=O)c1n[nH]c2ccccc12 (stereo unspecified) = -0.712
O=C(c1ccc2c(c1)CCC2)N1C[C@@H](CN2CCOCC2)[C@@H](CO)C1 = 0
CC1CCN(C(=O)c2ccn(COc3ccc(F)cc3)n2)CC1 = -5.52

Exam item: Report Percent Effect for CNc1nc2c(c(C(=O)N3CCCC3)n1)CN(Cc1nccn1C)CC2 please.
Marked response: -2.79

Exam item: Here is the next molecule: CN(C)c1ncc(CN2CCC(c3nnsc3S(C)(=O)=O)CC2)cn1
Marked response: 0.232

----------
Recorded Percent Effect, one value per entry.
target: Ubiquitin-activating enzyme e1, putative (Leishmania donovani (strain BPK282A1)) (UniProt E9BSI1); experiment: Leishmania donovani Ubiquitin Activating Enzyme (LdE1); type: functional; set-up: scale not given: direction of the effect not stated beside the values; settings: 30 µM
Entries with a potency or affinity are not part of this list.
Dear colleague, please return just the value in %, with no unit written.

Example entries begin here.
O=c1cc(CN2CCCC(CCc3c(F)cccc3F)C2)[nH]c(=O)[nH]1 (stereo unspecified) = 10.8
CC(=O)N1CCCC(Cc2cncc(Br)c2)CC1 (stereo unspecified) = 12.2
CCCc1noc(CCC(=O)N2CCCC2c2ccsc2)n1 (stereo unspecified) = -55.7
CCS(=O)(=O)N1CCC(c2nc3ccc(-c4ccccc4)cn3n2)CC1 = -2.74

Exam item: Report Percent Effect for Cc1ccc(CN2CCC(F)(F)C3(CCN(c4cnccn4)C3)C2)o1 (stereo unspecified) please.
Marked response: 2.7

Exam item: Here is the next compound: COCC1CCN(C(=O)c2cccc(S(=O)(=O)NCC3(C)COC3)c2)C1 (stereo unspecified)
Marked response: 5.41

Exam item: Here is the next compound: Cc1cc(C(F)(F)F)nn1C(C)C(=O)Nc1ccncc1 (stereo unspecified)
Marked response: 25.3

Exam item: Here is the next compound: CC(=O)N1CCCN(C(=O)c2cnc3n[nH]c(C)c3c2)CC1
Marked response: 15.8

Exam item: Here is the next compound: Cc1cnn(CC(C)NCc2ccc(OCc3ccncc3)cc2)c1 (stereo unspecified)
Marked response: -1.27

Exam item: Here is the next compound: Cc1nn(C)c(Cl)c1C1CCCN1C(=O)c1ccc2c(c1)OCO2 (stereo unspecified)
Marked response: -2.7

Exam item: Here is the next compound: Cc1cnn(CC2CCCN2C(=O)CCc2nc3ccccc3[nH]2)c1 (stereo unspecified)
Marked response: 7.59

----------
Recorded Percent Effect, one value per entry.
target: Tyrosyl-tRNA synthetase, putative (Trypanosoma cruzi (strain CL Brener)) (UniProt Q4DSP6); assay: Trypanosoma cruzi tyrosyl tRNA synthetase (TcYRS) SOP; type: functional; set-up: scale not given: direction of the effect not stated beside the values; settings: 30 µM
Dear colleague, please return just the value in %, with no unit written.

Example entries begin here.
CCN1CCN(C(=O)c2cc(C(=O)OC)nn2-c2ccccc2)CC1 = 7.32
CCS(=O)(=O)Nc1ccn(Cc2cccc(Cl)c2)n1 = 13.6
Cc1cc(CNC(=O)C2CCCCN2C(=O)OC(C)(C)C)no1 (stereo unspecified) = 13.6
CCOc1cccc(CNc2ccccc2C(=O)OC)c1O = 7.69
Cc1ccc(C(=O)N2CCC3(CCC(=O)N(CC(N)=O)C3)CC2)c(O)c1 = 5.13

Here is another compound to look at.
Exam item: Reported Percent Effect for Tyrosyl-tRNA synthetase, putative (Trypanosoma cruzi (strain CL Brener)) (UniProt Q4DSP6), given COCCN1CCN(C(=O)c2ccncc2F)Cc2cccnc21 ?
Marked response: -5.13
